- Test system: KCNQ 2/3 channels (HEK293 cells stably expressing human KCNQ2 and KCNQ3 subunits) (Homo sapiens, UniProt O43525+O43526)
- Protocol description: KCNQ2/3 channel activation, thallium flux FLIPR assay with BTC-AM dye
- Stated conditions: HEK293 cells expressing human KCNQ2 and KCNQ3; thallium flux, FLIPR
pEC50: −log10 of the molar value.
Assay endpoint: pEC50

Compound	Assay endpoint	Value measured
O=C(CC12CC3CC(CC(C3)C1)C2)Nn1nc(C2CCCCC2)c2ccccc2c1=O	pEC50	> 7.00
O=C(Cc1ccc(Cl)cc1)Nn1nc(-c2ccccc2)c2c(c1=O)CCCC2	pEC50	6.30 to 7.00
CC(C)c1ccc(-c2nn(NC(=O)Cc3cc(F)cc(F)c3)c(=O)c3ccccc23)cc1	pEC50	6.00 to 6.30
COc1ccc(CC(=O)Nn2nc(-c3ccc(Cl)cc3)c3ccccc3c2=O)cc1	pEC50	5.00 to 6.00
O=C(CC12CC3CC(CC(C3)C1)C2)Nn1nc(-c2ccccc2)c2cccnc2c1=O	pEC50	5.00 to 6.00
O=C(Cc1cccnc1)Nn1nc(-c2ccc(Cl)cc2)c2ccccc2c1=O	pEC50	5.00 to 6.00
O=C(CC12CC3CC(CC(C3)C1)C2)Nn1nc(-c2ccccc2)c2c(c1=O)CCCC2	pEC50	> 7.00

Query block: Form field: reported pEC50 of `CC(C)c1nn(NC(=O)Cc2cc(F)cc(F)c2)c(=O)c2ccccc12`
Result block: 6.30 to 7.00

###

- Test system: KCNQ 2/3 channels (HEK293 cells stably expressing human KCNQ2 and KCNQ3 subunits) (Homo sapiens, UniProt O43525+O43526)
- Construct: expressed in transfected cells; host or cells: HEK293
- Protocol description: KCNQ2/3 channel activation, thallium flux FLIPR assay with BTC-AM dye
- Type: cell-based
- Stated conditions: HEK293; maximum response relative to the response produced by 10 μM retigabine (set at 100%); read-out: Max. %
Assay endpoint: Emax (%)
Write down the numeric answer in % and omit the unit.

Compound	Unit annotation	Emax
O=C(CC12CC3CC(CC(C3)C1)C2)Nn1nc(-c2ccc(Cl)cc2)c2ccccc2c1=O	%	132
CC(C)CCC(=O)Nn1nc(-c2ccc(Cl)cc2)c2ccccc2c1=O	%	120
O=C(Cc1ccccc1)Nn1nc(C(F)(F)F)c2ccccc2c1=O	%	85
O=C(Cc1cc(F)cc(F)c1)Nn1nc(Cc2ccccc2)c2ccccc2c1=O	%	128
O=C(CSC12CC3CC(CC(C3)C1)C2)Nn1nc(-c2ccccc2)c2ccccc2c1=O	%	161

Query block: # input compound: `O=C(Cc1cc(F)cc(F)c1)Nn1nc(-c2ccccc2)c2c(c1=O)CCCC2` ; wanted: its Emax
Result block: 136

Query block: Entry `O=C(Cc1cc(F)cc(F)c1)Nn1nc(C2CCC2)c2ccccc2c1=O` please
Result block: 138

Query block: Quick one: `CC1(C)[C@H]2CC[C@@H](CC(=O)Nn3nc(-c4ccccc4)c4ccsc4c3=O)[C@@H]1C2`
Result block: 94

Query block: Now give it for `Cc1ccc(C)c(-c2nn(NC(=O)Cc3ccc(Cl)cc3)c(=O)c3ccccc23)c1` too.
Result block: 155

Query block: Consider next the compound `CC1(C)[C@H]2CC[C@@H](CC(=O)Nn3nc(-c4ccc(Cl)cc4)c4ccccc4c3=O)[C@@H]1C2` in the same way.
Result block: 69

Query block: Thanks! And O=C(CC1CC2CCC1C2)Nn1nc(C(F)(F)F)c2ccccc2c1=O (racemic) ?
Result block: 137

Query block: Same question for `O=C(CC12CC3CC(CC(C3)C1)C2)Nn1nc(Cl)c2ccccc2c1=O` please.
Result block: 123

Query block: Now consider `O=C(Cc1cc(F)cc(F)c1)Nn1nc(-c2ccc(Cl)cc2)c2c(F)ccc(F)c2c1=O` .
Result block: 166

Query block: Input `CN(C)c1ccc(CC(=O)Nn2nc(-c3ccc(Cl)cc3)c3ccccc3c2=O)cc1`
Result block: 57

Query block: Further, for `COc1ccc(CC(=O)Nn2nc(-c3ccc(Cl)cc3)c3ccccc3c2=O)cc1` ?
Result block: 97
